# Test system: Staphylococcus aureus MSSA ATCC 29213
# experimental details: Broth microdilution MIC
# assay context: Staphylococcus aureus, 24 h
Quick reference for MIC among some molecules
assay metric: MIC

| molecule | assay metric | value measured |
| --- | --- | --- |
| COC(=O)/C=C/C(C)=C\C=C\C(C)=C\C=C\C=C(C)\C=C\C=C(C)\C=C\C(=O)O [Compound 1a, Bixin, reference compound] | MIC | 512 µg/mL |
| COC(=O)/C=C/C(C)=C\C=C\C(C)=C\C=C\C=C(C)\C=C\C=C(C)\C=C\C(=O)N[C@H]1C(=O)N[C@H]2C(=O)N[C@H](C(=O)N[C@H]3C(=O)N[C@H]4C(=O)N[C@H](C(=O)N[C@H](C(=O)OC)c5cc(O)cc(O)c5-c5cc4ccc5O)[C@H](O)c4ccc(cc4)Oc4cc3cc(c4O)Oc3ccc(cc3)[C@H]2O)c2cc(O)c(C)c(c2)Oc2cc1ccc2O | MIC | 64 µg/mL |
| CC(=O)NC1C(OC2c3ccc(c(Cl)c3)Oc3cc4cc(c3O)Oc3ccc(cc3Cl)CC3NC(=O)C(NC(=O)C(C)=CC=CC(C)=CC=CC=C(C)C=CC=C(C)C=CC5=C(C)CCCC5(C)C)c5ccc(O)c(c5)Oc5cc(O)cc(c5)C(NC3=O)C(=O)NC4C(=O)NC3C(=O)NC2C(=O)NC(C(=O)O)c2cc(O)cc(O)c2-c2cc3ccc2O)OC(CO)C(O)C1O (centres unmarked) | MIC | 8 µg/mL |
| COC(=O)/C(C)=C/C=C/C(C)=C/C=C/C=C(C)/C=C/C=C(\C)C(=O)N[C@H]1C(=O)N[C@@H]2Cc3ccc(c(Cl)c3)Oc3cc4cc(c3O)Oc3ccc(cc3Cl)[C@@H](O[C@@H]3O[C@H](CO)[C@@H](O)[C@H](O)[C@H]3NC(C)=O)[C@@H]3NC(=O)[C@H](NC(=O)[C@@H]4NC(=O)[C@@H](NC2=O)c2cc(O)cc(c2)Oc2cc1ccc2O)c1ccc(O)c(c1)-c1c(O)cc(O)cc1[C@@H](C(=O)O)NC3=O | MIC | 8 µg/mL |
| COC(=O)/C=C/C(C)=C\C=C\C(C)=C\C=C\C=C(C)\C=C\C=C(C)\C=C\C(=O)N[C@H]1C(=O)N[C@@H]2Cc3ccc(c(Cl)c3)Oc3cc4cc(c3O)Oc3ccc(cc3Cl)[C@@H](O[C@@H]3O[C@H](CO)[C@@H](O)[C@H](O)[C@H]3NC(C)=O)[C@@H]3NC(=O)[C@H](NC(=O)[C@@H]4NC(=O)[C@@H](NC2=O)c2cc(O)cc(c2)Oc2cc1ccc2O)c1ccc(O)c(c1)-c1c(O)cc(O)cc1[C@@H](C(=O)O)NC3=O | MIC | 16 µg/mL |

###

# Test system: Enterococcus faecalis 15376 VanA
# experimental details: Broth microdilution MIC
# assay context: Enterococcus faecalis, 15376VANA, 24 h

| compound | result units | MIC |
| --- | --- | --- |
| COC(=O)/C=C/C(C)=C\C=C\C(C)=C\C=C\C=C(C)\C=C\C=C(C)\C=C\C(=O)N[C@H]1C(=O)N[C@H]2C(=O)N[C@H](C(=O)N[C@H]3C(=O)N[C@H]4C(=O)N[C@H](C(=O)N[C@H](C(=O)OC)c5cc(O)cc(O)c5-c5cc4ccc5O)[C@H](O)c4ccc(cc4)Oc4cc3cc(c4O)Oc3ccc(cc3)[C@H]2O)c2cc(O)c(C)c(c2)Oc2cc1ccc2O | µg/mL | 256 |
| COC(=O)/C(C)=C/C=C/C(C)=C/C=C/C=C(C)/C=C/C=C(\C)C(=O)N[C@H]1C(=O)N[C@@H]2Cc3ccc(c(Cl)c3)Oc3cc4cc(c3O)Oc3ccc(cc3Cl)[C@@H](O[C@@H]3O[C@H](CO)[C@@H](O)[C@H](O)[C@H]3NC(C)=O)[C@@H]3NC(=O)[C@H](NC(=O)[C@@H]4NC(=O)[C@@H](NC2=O)c2cc(O)cc(c2)Oc2cc1ccc2O)c1ccc(O)c(c1)-c1c(O)cc(O)cc1[C@@H](C(=O)O)NC3=O | µg/mL | 8 |
| COC(=O)/C=C/C(C)=C\C=C\C(C)=C\C=C\C=C(C)\C=C\C=C(C)\C=C\C(=O)O [Compound 1a, Bixin, reference compound] | µg/mL | 512 |
| COC(=O)/C=C/C(C)=C\C=C\C(C)=C\C=C\C=C(C)\C=C\C=C(C)\C=C\C(=O)N[C@H]1C(=O)N[C@@H]2Cc3ccc(c(Cl)c3)Oc3cc4cc(c3O)Oc3ccc(cc3Cl)[C@@H](O[C@@H]3O[C@H](CO)[C@@H](O)[C@H](O)[C@H]3NC(C)=O)[C@@H]3NC(=O)[C@H](NC(=O)[C@@H]4NC(=O)[C@@H](NC2=O)c2cc(O)cc(c2)Oc2cc1ccc2O)c1ccc(O)c(c1)-c1c(O)cc(O)cc1[C@@H](C(=O)O)NC3=O | µg/mL | 16 |
| CC(=O)NC1C(OC2c3ccc(c(Cl)c3)Oc3cc4cc(c3O)Oc3ccc(cc3Cl)CC3NC(=O)C(NC(=O)C(C)=CC=CC(C)=CC=CC=C(C)C=CC=C(C)C=CC5=C(C)CCCC5(C)C)c5ccc(O)c(c5)Oc5cc(O)cc(c5)C(NC3=O)C(=O)NC4C(=O)NC3C(=O)NC2C(=O)NC(C(=O)O)c2cc(O)cc(O)c2-c2cc3ccc2O)OC(CO)C(O)C1O (centres unmarked) | µg/mL | 8 |

###

# Tested on: Vero E6 cells
# assay context: dilutions from 100 µM

| compound | CC50 |
| --- | --- |
| COC(=O)/C=C/C(C)=C\C=C\C(C)=C\C=C\C=C(C)\C=C\C=C(C)\C=C\C(=O)N[C@H]1C(=O)N[C@@H]2Cc3ccc(c(Cl)c3)Oc3cc4cc(c3O)Oc3ccc(cc3Cl)[C@@H](O[C@@H]3O[C@H](CO)[C@@H](O)[C@H](O)[C@H]3NC(C)=O)[C@@H]3NC(=O)[C@H](NC(=O)[C@@H]4NC(=O)[C@@H](NC2=O)c2cc(O)cc(c2)Oc2cc1ccc2O)c1ccc(O)c(c1)-c1c(O)cc(O)cc1[C@@H](C(=O)O)NC3=O [Compound 5a] | > 100 µM |
| COC(=O)/C(C)=C/C=C/C(C)=C/C=C/C=C(C)/C=C/C=C(\C)C(=O)N[C@H]1C(=O)N[C@@H]2Cc3ccc(c(Cl)c3)Oc3cc4cc(c3O)Oc3ccc(cc3Cl)[C@@H](O[C@@H]3O[C@H](CO)[C@@H](O)[C@H](O)[C@H]3NC(C)=O)[C@@H]3NC(=O)[C@H](NC(=O)[C@@H]4NC(=O)[C@@H](NC2=O)c2cc(O)cc(c2)Oc2cc1ccc2O)c1ccc(O)c(c1)-c1c(O)cc(O)cc1[C@@H](C(=O)O)NC3=O [Compound 5b] | > 100 µM |
| CC(=O)NC1C(OC2c3ccc(c(Cl)c3)Oc3cc4cc(c3O)Oc3ccc(cc3Cl)CC3NC(=O)C(NC(=O)C(C)=CC=CC(C)=CC=CC=C(C)C=CC=C(C)C=CC5=C(C)CCCC5(C)C)c5ccc(O)c(c5)Oc5cc(O)cc(c5)C(NC3=O)C(=O)NC4C(=O)NC3C(=O)NC2C(=O)NC(C(=O)O)c2cc(O)cc(O)c2-c2cc3ccc2O)OC(CO)C(O)C1O (stereo not shown) [Compound 5c] | > 100 µM |
| CC(/C=C/C=C(C)/C=C/C(=O)O)=C\C=C\C=C(C)\C=C\C=C(C)\C=C\C(=O)O (stereo in doubt) [Compound 1d, norbixin] | > 100 µM |

###

# Tested on: Staphylococcus epidermidis ATCC 35984 biofilm
# experimental details: Broth microdilution MIC
# assay context: Staphylococcus epidermidis, ATCC35984, 24 h

| compound | system | MIC, µg/mL |
| --- | --- | --- |
| COC(=O)/C(C)=C/C=C/C(C)=C/C=C/C=C(C)/C=C/C=C(\C)C(=O)N[C@H]1C(=O)N[C@@H]2Cc3ccc(c(Cl)c3)Oc3cc4cc(c3O)Oc3ccc(cc3Cl)[C@@H](O[C@@H]3O[C@H](CO)[C@@H](O)[C@H](O)[C@H]3NC(C)=O)[C@@H]3NC(=O)[C@H](NC(=O)[C@@H]4NC(=O)[C@@H](NC2=O)c2cc(O)cc(c2)Oc2cc1ccc2O)c1ccc(O)c(c1)-c1c(O)cc(O)cc1[C@@H](C(=O)O)NC3=O | Staphylococcus epidermidis ATCC 35984 biofilm | 0.5 |
| COC(=O)/C=C/C(C)=C\C=C\C(C)=C\C=C\C=C(C)\C=C\C=C(C)\C=C\C(=O)N[C@H]1C(=O)N[C@H]2C(=O)N[C@H](C(=O)N[C@H]3C(=O)N[C@H]4C(=O)N[C@H](C(=O)N[C@H](C(=O)OC)c5cc(O)cc(O)c5-c5cc4ccc5O)[C@H](O)c4ccc(cc4)Oc4cc3cc(c4O)Oc3ccc(cc3)[C@H]2O)c2cc(O)c(C)c(c2)Oc2cc1ccc2O | Staphylococcus epidermidis ATCC 35984 biofilm | 64 |
| CC(=O)NC1C(OC2c3ccc(c(Cl)c3)Oc3cc4cc(c3O)Oc3ccc(cc3Cl)CC3NC(=O)C(NC(=O)C(C)=CC=CC(C)=CC=CC=C(C)C=CC=C(C)C=CC5=C(C)CCCC5(C)C)c5ccc(O)c(c5)Oc5cc(O)cc(c5)C(NC3=O)C(=O)NC4C(=O)NC3C(=O)NC2C(=O)NC(C(=O)O)c2cc(O)cc(O)c2-c2cc3ccc2O)OC(CO)C(O)C1O (centres unmarked) | Staphylococcus epidermidis ATCC 35984 biofilm | 0.5 |
| COC(=O)/C=C/C(C)=C\C=C\C(C)=C\C=C\C=C(C)\C=C\C=C(C)\C=C\C(=O)O [Compound 1a, Bixin, reference compound] | Staphylococcus epidermidis ATCC 35984 biofilm | 512 |
| COC(=O)/C=C/C(C)=C\C=C\C(C)=C\C=C\C=C(C)\C=C\C=C(C)\C=C\C(=O)N[C@H]1C(=O)N[C@@H]2Cc3ccc(c(Cl)c3)Oc3cc4cc(c3O)Oc3ccc(cc3Cl)[C@@H](O[C@@H]3O[C@H](CO)[C@@H](O)[C@H](O)[C@H]3NC(C)=O)[C@@H]3NC(=O)[C@H](NC(=O)[C@@H]4NC(=O)[C@@H](NC2=O)c2cc(O)cc(c2)Oc2cc1ccc2O)c1ccc(O)c(c1)-c1c(O)cc(O)cc1[C@@H](C(=O)O)NC3=O | Staphylococcus epidermidis ATCC 35984 biofilm | 0.5 |

Values compiled from paper PMC8619593.
